These measurements were taken from patent EP0600950B1.

target-or-test-system: acyl-CoA: cholesterol acyltransferase (ACAT)
measurement-notes: in vitro ACAT inhibition, rabbit intestinal microsomes (IAI)
Type: biochemical
test-conditions: radiolabeled cholesterol oleate formed from radiolabeled oleic acid
pIC50: −log10 of the molar value.
readout-name: pIC50

{"molecule": "CCCCCCCCCCCCn1nnc(C(C(=O)Nc2c(C(C)C)cccc2C(C)C)(c2ccccc2)c2ccccc2)n1", "pIC50": 4.96}

I = CCCCCCCCCCCCn1nnnc1CC(=O)Nc1c(C(C)C)cccc1C(C)C
II = CCCCCCCCCCCCn1nnc(CC(=O)Nc2c(C(C)C)cccc2C(C)C)n1
INPUT: Field: lower recorded pIC50 (choose I or II ) // output: label of the selected item
OUTPUT: I
(I: 7.04, II: 8.52)

###

target-or-test-system: acyl-CoA: cholesterol acyltransferase (ACAT)
measurement-notes: in vitro ACAT inhibition, rat liver microsomes (LAI)
Type: biochemical
test-conditions: radiolabeled cholesterol oleate formed from radiolabeled oleic acid
readout-name: IC50 (nM)

P = CCCCCCCCCCCCc1nnn(C(CCCCC)C(=O)Nc2c(OC)cc(OC)cc2OC)n1 (racemic)
Q = CCCCCCCCCCc1nnn(CC(=O)Nc2c(C(C)C)cccc2C(C)C)n1
R = CCCCCCCCCCCC[S+]([O-])c1nnn(C(C(=O)Nc2c(OC)cc(OC)cc2OC)c2ccccc2)n1 (racemic)
S = CCCCCCCCCCCCc1nnn(C(C(=O)Nc2c(C(C)C)cccc2C(C)C)c2ccccc2)n1 (racemic)
INPUT: Sort the listed entries by IC50, smallest first. Show the ranking through the labels, in the order asked for.
OUTPUT: Q, S, P, R

###

target-or-test-system: acyl-CoA: cholesterol acyltransferase (ACAT)
measurement-notes: in vitro ACAT inhibition, rabbit intestinal microsomes (IAI)
Format: biochemical
test-conditions: radiolabeled cholesterol oleate formed from radiolabeled oleic acid
pIC50: −log10 of the molar value.
readout-name: pIC50

a = CCCCCCCCCCCCn1nnc(C(C(=O)Nc2ccc3c(C)cc(C)nc3n2)c2ccccc2)n1 (racemic)
b = CCCCCCCCCCCCn1nnnc1CC(=O)Nc1c(OC)cc(OC)cc1OC
INPUT: Field: lower recorded pIC50 (choose a or b ) // output: label of the selected item
OUTPUT: a
(a: 6.72, b: 6.92)

###

target-or-test-system: acyl-CoA: cholesterol acyltransferase (ACAT)
measurement-notes: in vitro ACAT inhibition, rabbit intestinal microsomes (IAI)
Type: biochemical
test-conditions: radiolabeled cholesterol oleate formed from radiolabeled oleic acid
pIC50: −log10 of the molar value.
readout-name: pIC50

A = CCCCCCCCCCCCn1nnc(C(C(=O)Nc2c(OC)cc(OC)cc2OC)c2ccccc2)n1 (racemic) [Example 13]
B = CCCCCCCCCCCCn1nnc(C(C(=O)Nc2ccc(F)cc2F)c2ccccc2)n1 (racemic) [Example 21]
C = CCCCCCCCCCCCn1nnc(CC(=O)Nc2ccc(F)cc2F)n1 [Example 9]
D = CCCCCCCCCCCCn1nnc(C(C(=O)Nc2c(OC)cc(OC)cc2OC)c2ccc(F)cc2)n1 (racemic) [Example 52]
INPUT: Sort the listed entries by pIC50, smallest first. Show the ranking through the labels, in the order asked for.
OUTPUT: C, D, B, A

###

target-or-test-system: acyl-CoA: cholesterol acyltransferase (ACAT)
measurement-notes: in vitro ACAT inhibition, rat liver microsomes (LAI)
Type: biochemical
test-conditions: radiolabeled cholesterol oleate formed from radiolabeled oleic acid
readout-name: IC50 (nM)

Please review the following examples before continuing.
{"compound": "CCCCCCCCCCCCSc1nnn(C(C(=O)Nc2c(C(C)C)cccc2C(C)C)c2ccccc2)n1 (racemic)", "readout-name": "IC50", "endpoint-result": 29}
{"compound": "CC(C)c1cccc(C(C)C)c1NC(=O)C(c1ccccc1)n1nnc(C(c2ccccc2)c2ccccc2)n1 (racemic)", "readout-name": "IC50", "endpoint-result": 100}
{"compound": "COc1cc(OC)c(NC(=O)C(c2ccccc2)n2nnc(C(c3ccccc3)c3ccccc3)n2)c(OC)c1 (racemic)", "readout-name": "IC50", "endpoint-result": 190}

1 = CCCCCCCCCCCCc1nnn(CC(=O)Nc2c(C(C)C)cccc2C(C)C)n1
2 = CCCCCCCCCCCCc1nnn(CC(=O)Nc2c(OC)cc(OC)cc2OC)n1
INPUT: Field: lower recorded IC50 (choose 1 or 2 ) // output: label of the selected item
OUTPUT: 1
(1: 6 nM, 2: 56 nM)

###

target-or-test-system: acyl-CoA: cholesterol acyltransferase (ACAT)
measurement-notes: in vitro ACAT inhibition, rat liver microsomes (LAI)
Format: biochemical
test-conditions: radiolabeled cholesterol oleate formed from radiolabeled oleic acid
pIC50: −log10 of the molar value.
readout-name: pIC50

{"compound": "CCCCCCCCCCCCc1nnn(C(C(=O)Nc2c(OC)cc(OC)cc2OC)c2ccccc2)n1 (racemic)", "endpoint-result": 7.68}

1 = CCCCCCCCCCCCc1nnn(C(C(=O)Nc2ccc(F)cc2F)c2ccccc2)n1 (racemic)
2 = CCCCCCCCCCc1nnnn1CC(=O)Nc1c(C(C)C)cccc1C(C)C
INPUT: Field: lower recorded pIC50 (choose 1 or 2 ) // output: label of the selected item
OUTPUT: 2

###

target-or-test-system: acyl-CoA: cholesterol acyltransferase (ACAT)
measurement-notes: in vitro ACAT inhibition, rat liver microsomes (LAI)
Type: biochemical
test-conditions: radiolabeled cholesterol oleate formed from radiolabeled oleic acid
pIC50: −log10 of the molar value.
readout-name: pIC50

{"molecule": "CCCCCCCCCCc1nnn(C(C(=O)Nc2c(OC)cc(OC)cc2OC)c2ccccc2)n1 (racemic) [Example 95]", "target-or-test-system": "acyl-CoA: cholesterol acyltransferase (ACAT)", "readout-name": "pIC50", "endpoint-result": 7.24}

I = CCCCCCCCCCCCc1nnn(C(C)(C)C(=O)Nc2c(OC)cc(OC)cc2OC)n1 [Example 102]
II = CCCCCCCCCCCCc1nnn(C(CCCCC)C(=O)Nc2c(C(C)C)cccc2C(C)C)n1 (racemic) [Example 93]
INPUT: Which has the higher pIC50, I or II ? // output: label of the selected item
OUTPUT: II
(II: 7.66, I: 7.38)

###

target-or-test-system: acyl-CoA: cholesterol acyltransferase (ACAT)
measurement-notes: in vitro ACAT inhibition, rabbit intestinal microsomes (IAI)
Format: biochemical
test-conditions: radiolabeled cholesterol oleate formed from radiolabeled oleic acid
readout-name: IC50 (nM)

Please review the following examples before continuing.
{"compound": "CCCCCCCCCCCCn1nnc(CC(=O)Nc2c(OC)cc(OC)cc2OC)n1", "target-or-test-system": "acyl-CoA: cholesterol acyltransferase (ACAT)", "endpoint-result": 10}
{"compound": "CCCCCCCCCCCCn1nnc(C(C(=O)NC(C)(C)C)c2ccccc2)n1 (racemic)", "target-or-test-system": "acyl-CoA: cholesterol acyltransferase (ACAT)", "endpoint-result": 770}
{"compound": "CCCCCCCCn1nnc(C(C(=O)Nc2c(OC)cc(OC)cc2OC)c2ccccc2)n1 (racemic)", "target-or-test-system": "acyl-CoA: cholesterol acyltransferase (ACAT)", "endpoint-result": 270}
{"compound": "CCCCCCCCCCCCn1nnc(C(C(=O)Nc2c(OC)cc(OC)cc2OC)c2ccccc2)n1 (single isomer, unassigned; (+)) [Example 62]", "target-or-test-system": "acyl-CoA: cholesterol acyltransferase (ACAT)", "endpoint-result": 14}
{"compound": "CCCCCCCCCCCCCn1nnc(C(C)(C)C(=O)Nc2c(OC)cc(OC)cc2OC)n1", "target-or-test-system": "acyl-CoA: cholesterol acyltransferase (ACAT)", "endpoint-result": 17}

1 = CCCCCCCCCCCCn1nnc(C(C(=O)Nc2c(OC)cc(OC)cc2OC)c2ccccc2)n1 (single isomer, unassigned; (-)) [Example 61]
2 = CCCCCCCCCCCCn1nnc(C(C(=O)Nc2c(OC)ncnc2OC)c2ccccc2)n1 (racemic)
INPUT: Field: lower recorded IC50 (choose 1 or 2 ) // output: label of the selected item
OUTPUT: 2

A = CCCCCCCCCCCCn1nnc(C(C(=O)Nc2c(OC)cc(OC)cc2OC)C2CCCCC2)n1 (racemic)
B = CCCCCCCCCCCCn1nnc(C(C(=O)Nc2ccccc2)c2ccccc2)n1 (racemic)
C = CCCCCCCCCCCCCCn1nnc(CCC(=O)Nc2c(OC)cc(OC)cc2OC)n1
D = CCCCCCCCCCCCn1nnc(C(Cc2ccccc2)C(=O)Nc2c(OC)cc(OC)cc2OC)n1 (racemic)
INPUT: Order the 4 compounds from highest to lowest IC50. Show the ranking through the labels, in the order asked for.
OUTPUT: C, B, D, A
(C: 2100 nM, B: 91 nM, D: 49 nM, A: 28 nM)

P = CCCCCCCCCCCCn1nnc(C(C(=O)Nc2c(C)ccc[n+]2[O-])c2ccccc2)n1 (racemic)
Q = CCCCCCCCCCCCn1nnc(C(C)(C)C(=O)Nc2c(OC)cc(OC)cc2OC)n1
INPUT: Which has the higher IC50, P or Q ? // output: label of the selected item
OUTPUT: P

I = CCCCCCCCCCCCn1nnc(C(C)(C(=O)Nc2c(OC)cc(OC)cc2OC)c2ccccc2)n1 (racemic)
II = CCCCCCCCCCCCn1nnc(C(C(=O)Nc2c(OC)cc(OC)cc2OC)c2ccc(N(C)C)cc2)n1 (racemic)
INPUT: Which has the higher IC50, I or II ? // output: label of the selected item
OUTPUT: II

A = CCCCCCCCCCCCn1nnc(CCC(=O)Nc2c(OC)cc(OC)cc2OC)n1
B = CCCCCCCCCCCCCCn1nnnc1CC(=O)Nc1c(OC)cc(OC)cc1OC
C = CCCCCCCCCCCCn1nnc(CC(=O)Nc2ncccc2C)n1
D = CCCCCCCCCCCCn1nnc(C2(C(=O)Nc3c(OC)cc(OC)cc3OC)CCCC2)n1
INPUT: Order the 4 compounds from highest to lowest IC50. Show the ranking through the labels, in the order asked for.
OUTPUT: B, A, C, D

P = CCCCCCCCCCCCn1nnc(C(C(=O)Nc2ccccn2)c2ccccc2)n1 (racemic)
Q = CCCCCCCCCCCCn1nnnc1CCC(=O)Nc1c(OC)cc(OC)cc1OC
INPUT: Which has the higher IC50, P or Q ? // output: label of the selected item
OUTPUT: Q
(Q: 210 nM, P: 91 nM)

I = CCCCCCCCCCCCCCCCn1nnc(C(C(=O)Nc2c(OC)cc(OC)cc2OC)c2ccccc2)n1 (racemic)
II = CCCCCCCCCCCCn1nnc(C(C(=O)Nc2c(OC)cc(OC)cc2OC)c2ccc(-c3ccccc3)cc2)n1 (racemic)
III = CCCCCCCCCCCCn1nnc(C(C(=O)Nc2ncccc2C)c2ccccc2)n1 (racemic)
IV = CCCCCCCCCCCCn1nnc(CC(=O)Nc2c(C)nn(C)c2C)n1
V = CCCCCCCCCCCCn1nnc(C(C(=O)Nc2cnc3c(C)cc(C)cc3c2-c2ccccc2Cl)c2ccccc2)n1 (racemic)
INPUT: Order the records, beginning with the lowest IC50 and ending with the highest. Show the ranking through the labels, in the order asked for.
OUTPUT: III, IV, V, I, II

P = CCCCCCCCCCCCn1nnc(C(C(=O)Nc2c(C)nn(C)c2C)c2ccccc2)n1 (racemic)
Q = CCCCCCCCCCCCn1nnnc1C(C(=O)Nc1ccc(F)cc1F)c1ccccc1 (racemic)
R = CCCCCCCCCCCCn1nnc(CC(=O)Nc2c(OC)ncnc2OC)n1
INPUT: Order the 3 compounds from highest to lowest IC50. Show the ranking through the labels, in the order asked for.
OUTPUT: Q, P, R
